- Tested On: Prostaglandin G/H synthase 1 (Ovis aries) (UniProt P05979)
- Sequence (whole entry): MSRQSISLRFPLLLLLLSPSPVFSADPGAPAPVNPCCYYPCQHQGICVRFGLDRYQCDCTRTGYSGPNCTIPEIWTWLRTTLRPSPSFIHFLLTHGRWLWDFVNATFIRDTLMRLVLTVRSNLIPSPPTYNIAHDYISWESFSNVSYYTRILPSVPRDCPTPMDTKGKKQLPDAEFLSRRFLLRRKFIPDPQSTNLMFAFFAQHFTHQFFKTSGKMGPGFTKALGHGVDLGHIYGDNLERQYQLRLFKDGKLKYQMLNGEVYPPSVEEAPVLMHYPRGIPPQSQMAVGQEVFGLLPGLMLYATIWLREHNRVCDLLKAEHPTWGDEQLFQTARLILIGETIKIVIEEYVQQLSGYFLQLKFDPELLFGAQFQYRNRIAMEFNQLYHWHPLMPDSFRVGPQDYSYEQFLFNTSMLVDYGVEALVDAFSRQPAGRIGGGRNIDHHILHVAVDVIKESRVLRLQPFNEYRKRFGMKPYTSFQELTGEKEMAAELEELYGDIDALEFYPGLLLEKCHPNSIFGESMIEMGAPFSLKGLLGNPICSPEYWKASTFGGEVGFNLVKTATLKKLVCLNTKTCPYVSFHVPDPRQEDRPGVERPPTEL
- Test Summary: Inhibition of prostaglandin G/H synthase 1 enzyme from ram seminal vesicles by spectrophotometric method at 10 uM
Quantity Name: inhibition (%)
Reply with just the number (in %).

Param item = C[S+]([O-])c1ccc(C(Nc2cccnc2)C(=O)c2ccc(F)cc2)cc1 (configuration not stated) ; retrieve measured inhibition. -0

Subsequent entry: C[S+]([O-])c1ccc(C(=O)C(Nc2nccs2)c2ccccc2)cc1 (configuration not stated) 29

Subsequent entry: `Cc1nn(-c2ccc(S(N)(=O)=O)c(CO)c2)c2c1c(O)nc1ccc([N+](=O)[O-])cc12` -0

Subsequent entry: C[S+]([O-])c1ccc(C(Nc2nccs2)C(=O)c2ccc(F)cc2)cc1 (configuration not stated) -0

Subsequent entry: `Cc1nn(-c2ccccc2)c2c1c(O)nc1ccc([N+](=O)[O-])cc12` 46

Subsequent entry: NS(=O)(=O)c1ccc(C(Nc2nccs2)C(=O)c2ccc(F)cc2)cc1 (configuration not stated) -0

Subsequent entry: NS(=O)(=O)c1ccc(C(Nc2ccccn2)C(=O)c2ccc(F)cc2)cc1 (configuration not stated) 30

----------
For each entry below, report its IC50 value.
- Tested On: Prostaglandin G/H synthase 2 (Homo sapiens, UniProt P35354)
- Sequence (P35354 whole entry): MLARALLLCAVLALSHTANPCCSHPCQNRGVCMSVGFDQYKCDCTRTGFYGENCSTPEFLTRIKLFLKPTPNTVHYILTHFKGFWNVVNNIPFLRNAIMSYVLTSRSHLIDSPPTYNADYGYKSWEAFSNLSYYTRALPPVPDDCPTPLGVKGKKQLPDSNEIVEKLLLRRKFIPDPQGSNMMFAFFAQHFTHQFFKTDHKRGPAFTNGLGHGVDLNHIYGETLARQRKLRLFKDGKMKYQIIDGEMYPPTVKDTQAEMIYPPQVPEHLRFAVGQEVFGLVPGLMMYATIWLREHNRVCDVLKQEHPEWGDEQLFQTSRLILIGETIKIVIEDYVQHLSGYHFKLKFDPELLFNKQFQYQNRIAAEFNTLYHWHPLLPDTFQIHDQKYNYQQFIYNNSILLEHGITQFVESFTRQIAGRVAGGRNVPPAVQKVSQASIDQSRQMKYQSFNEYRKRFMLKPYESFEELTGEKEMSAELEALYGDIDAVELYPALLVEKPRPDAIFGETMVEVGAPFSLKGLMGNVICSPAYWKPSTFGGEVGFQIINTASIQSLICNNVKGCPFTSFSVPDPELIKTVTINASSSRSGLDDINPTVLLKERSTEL
- Test Summary: Inhibition of human Prostaglandin G/H synthase 2 in sf-9 cells by spectrophotometric method
Reply with just the number (in µM).

Param item = `Cc1nn(-c2ccc(S(N)(=O)=O)cc2)c2c1c(=O)[nH]c1ccc([N+](=O)[O-])cc12` ; retrieve measured IC50. 0.24

Subsequent entry: `Cc1nn(-c2ccccc2)c2c1c(O)nc1ccc([N+](=O)[O-])cc12` 0.55

----------
- Tested On: Prostaglandin G/H synthase 1 (Ovis aries)
- Test Summary: Inhibition of prostaglandin G/H synthase 1 enzyme from ram seminal vesicles by spectrophotometric method at 10 uM
For each entry below, report its inhibition value.
Reply with just the number (in %).

Param item = CSc1ccc(C(=O)C(Nc2ncccc2Cl)c2ccccc2)cc1 (stereo not given) ; retrieve measured inhibition. 53

Subsequent entry: `Cc1nn(-c2ccc(S(=O)(=O)NCc3ccccc3)cc2)c2c1c(O)nc1ccc([N+](=O)[O-])cc12` 78

Subsequent entry: CS(=O)(=O)c1ccc(C(Nc2nccs2)C(=O)c2ccc(F)cc2)cc1 (stereo not given) -0

Subsequent entry: NS(=O)(=O)c1ccc(C(Nc2ncccn2)C(=O)c2ccc(F)cc2)cc1 (stereo not given) -0

Subsequent entry: `Cc1nn(-c2ccc(S(N)(=O)=O)c(CO)c2)c2c1c(O)nc1ccccc12` -0

----------
- Tested On: Prostaglandin G/H synthase 1 (Ovis aries) (UniProt P05979)
- Test Summary: Inhibition of prostaglandin G/H synthase 1 enzyme from ram seminal vesicles by spectrophotometric method at 10 uM
Everything with inhibition lower than 20% is Not satisfied; everything else, including exactly 20%, is Satisfied.

Item `Cc1nn(-c2ccccc2)c2c1c(O)nc1ccccc12` with inhibition of 20% or above? Satisfied

Subsequent entry: `Cc1nn(-c2ccc(S(N)(=O)=O)cc2)c2c1c(O)nc1ccc([N+](=O)[O-])cc12` Satisfied

Subsequent entry: NS(=O)(=O)c1ccc(C(Nc2nc3ccccc3s2)C(=O)c2ccc(F)cc2)cc1 (stereo not given) Satisfied

Subsequent entry: CS(=O)(=O)c1ccc(C(=O)C(Nc2nccs2)c2ccccc2)cc1 (stereo not given) Not satisfied
